Test system: MDA-MB-231 breast
Assay: NCI-60 one-dose screen, 48 h (100 = growth as untreated, 0 = no growth, -100 = all killed)
Conditions: 10 µM
Compounds without any hit were thinned out: in the full panel of roughly 83,000, 20% have a hit.
// classify: if (growth < 90%) true else false

Here are 9 molecules together with their reported answers.
molecule=O=C(c1ccccc1)N(C(=O)c1ccccc1)N1CCCC1 target_or_test_system="MDA-MB-231 breast" label_value=false
molecule="CCC(C)[C@H](NC(C)=O)C(=O)N[C@@H](CCCNC(=N)N)C(=O)N[C@@H](CCCCN)C(=O)N[C@@H](CC1CCC(O)CC1)C(=O)NC(C(=O)N[C@@H](CCSC)C(=O)N[C@@H](CCCNC(=N)N)C(=O)N[C@@]1(C)CCC/C=C\\CCC[C@@](C)(C(=O)NC(C(=O)N[C@@H](CCC(=O)O)C(=O)N[C@@H](CC(C)C)C(=O)N[C@H](C(=O)N[C@@H](CCC(=O)O)C(N)=O)C(C)C)[C@@H](C)O)NC(=O)[C@H](CCC(N)=O)NC(=O)[C@H](CC(C)C)NC(=O)[C@H](CC(C)C)NC1=O)[C@@H](C)O (stereo not given in full)" target_or_test_system="MDA-MB-231 breast" label_value=false
molecule=O=C(CCCCNC(=O)c1nc(-c2ccccc2)n(-c2ccccc2)n1)NO target_or_test_system="MDA-MB-231 breast" label_value=true
molecule=C[C@]12CC[C@@H]3c4ccc(O)cc4CC[C@H]3[C@@H]1CC[C@@H]2NS(=O)(=O)c1ccc(C(F)(F)F)cc1 target_or_test_system="MDA-MB-231 breast" label_value=true
molecule="CC(C)[N+]1(C)C2CC[C@@H]1CC(OC(=O)C(CO)c1ccccc1)C2 (stereo not given in full)" target_or_test_system="MDA-MB-231 breast" label_value=false
molecule="COc1ccc(/C=C2\\CCCC3=C2NC(N)=NC3c2ccc(OC)cc2)cc1 (stereo not given)" target_or_test_system="MDA-MB-231 breast" label_value=false
molecule=C[n+]1c2ccccc2nc2ccccc21 target_or_test_system="MDA-MB-231 breast" label_value=true
molecule="COc1cc(C2CC(c3cc(Cl)c(C)cc3O)=NN2c2ccc(S(N)(=O)=O)cc2)cc(OC)c1OC (stereo not given)" target_or_test_system="MDA-MB-231 breast" label_value=true
molecule=Nc1cc(Br)c(-c2nn3c(CCC(=O)c4nc5ccccc5[nH]4)nnc3s2)c(Br)c1 target_or_test_system="MDA-MB-231 breast" label_value=false

State whether 90% exceeds growth recorded for `Cc1ccc(NC(=O)N2CCCCC2)cc1[N+](=O)[O-]` .
false

---

Tested on: MALME-3M melanoma
Test: NCI-60 one-dose screen, 48 h (100 = growth as untreated, 0 = no growth, -100 = all killed)
Settings: 10 µM
The panel holds about 83,000 compounds, 20% with a hit somewhere; the sample as a whole holds those more often.
Each entry falls in a class defined on growth; the bands are bottom (below 40%), middle (40% to below 90%), top (90% or more)

compound=CC(C)c1cc(N=O)cc(C(C)C)c1O target_or_test_system="MALME-3M melanoma" label_value=top
compound=COc1ccc(-c2cc(-c3ccc(OC)c(OC)c3)nc(SCCCC(=O)NO)n2)cc1 target_or_test_system="MALME-3M melanoma" label_value=bottom
compound=N=C1S/C(=C/c2ccc(-c3ccc4c(c3)C(=O)NC4=O)o2)C(=O)N1c1ccc(Br)cc1 target_or_test_system="MALME-3M melanoma" label_value=bottom

Place this compound in its band: `CC(C)(C)OC(=O)CC(S(=O)(=O)c1ccccc1)S(=O)(=O)c1ccccc1`
bottom

Place this compound in its band: Cc1ccc(C(=O)C2C(=O)C3CCC2C3)cc1 (configuration not stated)
top

---

Tested on: HS 578T breast
Experiment: NCI-60 one-dose screen, 48 h (100 = growth as untreated, 0 = no growth, -100 = all killed)
Details: 10 µM
This is part of a sample that, as a whole, favours compounds with a hit. Of some 83,000 tested, about 20% had one in any assay.
// classify: if (growth < 80%) Criterion met else Criterion not met

molecule="Nc1ccc(-c2cccs2)cc1NC(=O)c1ccc(CCCC(=O)Nc2ccc(C3CC3N)cc2)cc1 (stereo not given)" target_or_test_system="HS 578T breast" label_value="Criterion met"
molecule=O=C(CSc1nnc(-c2ccc(Cl)cc2)o1)Nc1ccc(C(=O)/C=C/c2ccc(Cl)cc2)cc1 target_or_test_system="HS 578T breast" label_value="Criterion not met"
molecule=COc1cc(-c2ccc[nH]2)[nH]c1/C=C1\N=C(C)C(C(=O)NC(C)C)=C1C target_or_test_system="HS 578T breast" label_value="Criterion met"
molecule="COc1cc(/C=C2\\CCCC3=C2NC(N)=NC3c2cc(OC)c(OC)c(OC)c2)cc(OC)c1OC (stereo not given)" target_or_test_system="HS 578T breast" label_value="Criterion met"
molecule=CC(C)(C)OC(=O)N1CCc2c(sc3ncnc(N/N=C/c4ccc(Br)cc4)c23)C1 target_or_test_system="HS 578T breast" label_value="Criterion met"

Could you now consider this next molecule?
State whether 80% exceeds growth recorded for `O=C(Nc1ccc2c(O)cc(S(=O)(=O)O)cc2c1)c1ccc([N+](=O)[O-])cc1` .
Criterion not met

---

Consider the following compounds; for each one, report its growth.
System: EKVX NSCLC
Experiment: NCI-60 one-dose screen, 48 h (100 = growth as untreated, 0 = no growth, -100 = all killed)
Settings: 10 µM
The panel holds about 83,000 compounds, 20% with a hit somewhere; the sample as a whole holds those more often.
Answers are plain numbers, in %.

compound=S=C(SSC(=S)N(c1ccccc1)c1ccccc1)N(c1ccccc1)c1ccccc1 measurement_label=growth reported_value=118

For the 2 compounds below, give their growth values.
1. COc1ccc(CCN2CCC(Nc3nc4ccccc4n3Cc3ccc(F)cc3)CC2)cc1
2. NS(=O)(=O)Oc1ccc(NC(=O)C2CCCCCC2)cc1

[45.1, 85.1]

For the 3 compounds below, give their growth values.
1. CCOC(=O)c1cc(C(=O)c2cc(OC)c(OC)c(OC)c2)n2c1ccc1c3cccnc3ccc12
2. c1ccc(CCCCc2ccc3ccccc3n2)cc1
3. Cc1c(O)c(=O)ccn1C1CCC(CC2CCC(n3ccc(=O)c(O)c3C)CC2)CC1 (centres undefined)

1: 93.3; 2: 98.1; 3: 10.2

---

Tested on: MOLT-4 leukemia
Assay: NCI-60 one-dose screen, 48 h (100 = growth as untreated, 0 = no growth, -100 = all killed)
Details: 10 µM
This is part of a sample that, as a whole, favours compounds with a hit. Of some 83,000 tested, about 20% had one in any assay.
// classify: if (growth < 70%) rule met else rule not met

Here are 4 compounds together with their reported answers.
compound=CSc1nc2c(c(=O)n1C)CN(Cc1ccccc1)C(=O)CN2 label_value="rule not met"
compound=CCC(CC)n1c(C)cc(=O)n1C(CC)CC label_value="rule not met"
compound="CCCCN1C(=O)CC(SC2CC(=O)N(CCCC)C2=O)C1=O (configuration not stated)" label_value="rule not met"
compound="O=C1OC(C(Cl)(Cl)Cl)OC1C(Cl)(Cl)Cl (configuration not stated)" label_value="rule met"

State whether 70% exceeds growth recorded for `O=C(CCn1cnc2c(cc(-c3ccccc3)n2-c2ccccc2)c1=O)Nc1ccc(F)cc1` .
rule not met

State whether 70% exceeds growth recorded for `COc1ccc(-c2cc(-c3ccc(Cl)cc3)nc(SCCCC(=O)NO)n2)cc1OC` .
rule met

State whether 70% exceeds growth recorded for `CN1CCc2c(sc3nc4n(-c5ccc(Cl)cc5)cnn4c(=O)c23)C1` .
rule not met

State whether 70% exceeds growth recorded for `O=c1c(Br)ccc(Br)cc1Br` .
rule met

State whether 70% exceeds growth recorded for C=CCN(CC=C)C(=O)[C@H](CC)[C@@H]1CC[C@@H](C)[C@@H]([C@H](C)[C@@H](O)[C@@H](C)C(=O)[C@H](CC)C2O[C@]3(C=C[C@@H](O)[C@]4(CC[C@@](C)([C@H]5CC[C@](O)(CC)[C@H](C)O5)O4)O3)[C@H](C)C[C@@H]2C)O1 (some centres not stated) .
rule met

State whether 70% exceeds growth recorded for `CCCCc1oc2ccccc2c1C(=O)c1cc(I)c(OCCN(CC)CC)c(I)c1` .
rule met

State whether 70% exceeds growth recorded for `COc1ccc([C@H]2[C@H](C(=O)Nc3cccnc3)c3ccccc3C(=O)N2c2ccccc2)cc1` .
rule not met

State whether 70% exceeds growth recorded for COc1ccc(/C=C2\CCCC3=C2NC(N)=NC3c2ccc(OC)c(OC)c2)cc1OC (configuration not stated) .
rule met

State whether 70% exceeds growth recorded for `Cc1ccc(N=Nc2ccccc2)cc1` .
rule not met

State whether 70% exceeds growth recorded for `Nc1ncc(-c2cnn(C3CCNCC3)c2)cc1-c1nc2ccccc2o1` .
rule met
